- Test system: U87MG Cell line (glioblastoma cell line)
- assay: Cell proliferation assay (MTT), in-vitro anticancer activity against U87MG cell line
- Type: cell-based
- assay_context: Homo sapiens, U-87 MG, 10 μM, 72 h

compound: Nc1nc(Nc2ccccc2)sc1-c1cc(=O)c2ccc(O)cc2o1
target_entity: U87MG Cell line (glioblastoma cell line)
output_unit: %
viability at 10 µM: 51.4
//
compound: COc1ccc2oc(-c3sc(Nc4c(Cl)cccc4Cl)nc3N)cc(=O)c2c1
target_entity: U87MG Cell line (glioblastoma cell line)
output_unit: %
viability at 10 µM: 55.9
//
compound: COc1ccc2c(=O)cc(-c3sc(Nc4ccccc4OC)nc3N)oc2c1
target_entity: U87MG Cell line (glioblastoma cell line)
output_unit: %
viability at 10 µM: 50.3
//
compound: COc1ccc2oc(-c3sc(Nc4ccccc4C)nc3N)cc(=O)c2c1
target_entity: U87MG Cell line (glioblastoma cell line)
output_unit: %
viability at 10 µM: 49.8
//
compound: COc1cc2ncnc(Nc3ccc(F)c(Cl)c3)c2cc1OCCCN1CCOCC1 [Gefitinib, gefitinib, reference compound]
target_entity: U87MG Cell line (glioblastoma cell line)
output_unit: %
viability at 10 µM: 20.3
//
compound: Nc1nc(Nc2ccccc2)sc1-c1cc(=O)c2ccccc2o1
target_entity: U87MG Cell line (glioblastoma cell line)
output_unit: %
viability at 10 µM: 51.5
//
compound: COc1ccc(Nc2nc(N)c(-c3cc(=O)c4ccc(OC)cc4o3)s2)cc1
target_entity: U87MG Cell line (glioblastoma cell line)
output_unit: %
viability at 10 µM: 51.1
//
compound: Cc1ccccc1Nc1nc(N)c(-c2cc(=O)c3ccc(O)cc3o2)s1
target_entity: U87MG Cell line (glioblastoma cell line)
output_unit: %
viability at 10 µM: 54.8
//
compound: COc1ccc2oc(-c3sc(Nc4ccc(C)cc4)nc3N)cc(=O)c2c1
target_entity: U87MG Cell line (glioblastoma cell line)
output_unit: %
viability at 10 µM: 50.4
//
compound: Nc1nc(Nc2c(Cl)cccc2Cl)sc1-c1cc(=O)c2ccc(O)cc2o1
target_entity: U87MG Cell line (glioblastoma cell line)
output_unit: %
viability at 10 µM: 52.9
//
compound: Cc1ccc(Nc2nc(N)c(-c3cc(=O)c4ccccc4o3)s2)cc1
target_entity: U87MG Cell line (glioblastoma cell line)
output_unit: %
viability at 10 µM: 55.6
//
compound: COc1ccc2oc(-c3sc(Nc4c(C)cccc4C)nc3N)cc(=O)c2c1
target_entity: U87MG Cell line (glioblastoma cell line)
output_unit: %
viability at 10 µM: 45.8
